Item-by-item account of normalized growth
# Procedure Summary: chemical genetic growth profiling, strain panel (AID 1159580);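 note: tested at 20 µM; growth read once vehicle control cultures reached saturation at 30 °C; 1 = growth at the plate median or of vehicle wells; lower values mean less growth of the strain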
# Assay Context: S. cerevisiae deletion strains, growth OD, locus YKL190W, strain CNB1, stronger effect = lower value
The whole screen tested about 5,500 compounds, of which about 2,000 (36%) were called active. Inconclusive results (about 18%) are left out. The list shows a part of the results.
Hey, just send me the number, nothing else.

Answered examples (5):
In [3]: df
Out[3]:
                                   compound   measurement_name  observed_measurement
0  CSc1ccc2c(c1)N(CCC1CCCCN1C)c1ccccc1S2 (stereo unspecified)  normalized growth                0.0633
1                 COc1ccc(C(=O)C2CCNCC2)cc1  normalized growth                     1
2  O=C(O)Cc1cc(I)c(Oc2cc(I)c(O)c(I)c2)c(I)c1  normalized growth                 0.946
3  CN(C(=O)CN(CCO)CC(=O)N(C)C(C)(C)Cc1ccccc1)C(C)(C)Cc1ccccc1  normalized growth                 0.992
4                COc1ccc(C(=O)N2CCCC2=O)cc1  normalized growth                 0.993

Fill in reported normalized growth for this entry: CC(=O)Nc1ccc(S(=O)(=O)NC2Cc3ccccc3C2)cc1
1.01

Fill in reported normalized growth for this entry: Cc1c(S(=O)(=O)c2ccc(Cl)cc2)csc1S(=O)(=O)N/N=C\c1c(Cl)cccc1Cl
1

Fill in reported normalized growth for this entry: Cc1cscc1S(=O)(=O)c1ccc(Cl)cc1
0.991

Fill in reported normalized growth for this entry: COc1cc(S(C)=O)ccc1-c1nc2ncccc2[nH]1 (stereo unspecified)
0.991

Fill in reported normalized growth for this entry: N[C@@H](Cc1cc(I)c(Oc2ccc(O)c(I)c2)c(I)c1)C(=O)O
1.01

Fill in reported normalized growth for this entry: N[C@H](Cc1cc(I)c(Oc2ccc(O)c(I)c2)c(I)c1)C(=O)O
1.01
